# Method Summary: Solubility limit in functional assay
# Format: physicochemical
# Study Conditions: read-out: highest soluble test concentration
Property Measured: solubility

Give the reported solubility for this molecule. O=C(OCC1CCCN(CCCc2ccccc2)C1)c1ccccc1-c1ccccc1 (stereo not shown) [KAB-18] ≤ 100 µM

---

# Subject Of Test: hα4β2WT nAChRs (Homo sapiens, UniProt P17787+P43681)
# Construct: Human nAChR α4 and β2 full-length cDNAs in the vector pSP64 (poly A); expressed in transfected cells; host or cells: HEK ts201 cells
# Sequence (P43681 29-627 limits assumed): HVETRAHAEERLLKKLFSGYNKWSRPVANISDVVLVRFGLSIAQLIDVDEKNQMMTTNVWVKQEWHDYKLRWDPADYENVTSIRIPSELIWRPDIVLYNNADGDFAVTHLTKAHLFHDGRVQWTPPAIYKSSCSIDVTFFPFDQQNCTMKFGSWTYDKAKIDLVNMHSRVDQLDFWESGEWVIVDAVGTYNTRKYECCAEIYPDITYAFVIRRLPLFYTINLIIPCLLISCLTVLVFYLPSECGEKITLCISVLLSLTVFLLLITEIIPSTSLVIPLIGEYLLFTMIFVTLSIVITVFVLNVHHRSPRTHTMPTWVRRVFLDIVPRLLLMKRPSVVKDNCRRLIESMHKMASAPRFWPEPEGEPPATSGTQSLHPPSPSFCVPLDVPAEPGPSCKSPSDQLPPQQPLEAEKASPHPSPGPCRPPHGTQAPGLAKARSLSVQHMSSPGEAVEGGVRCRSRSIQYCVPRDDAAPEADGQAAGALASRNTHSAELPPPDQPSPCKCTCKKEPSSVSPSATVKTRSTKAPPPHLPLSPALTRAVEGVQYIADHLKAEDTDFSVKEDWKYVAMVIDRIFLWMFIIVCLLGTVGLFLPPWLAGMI
# Sequence (P17787 26-502): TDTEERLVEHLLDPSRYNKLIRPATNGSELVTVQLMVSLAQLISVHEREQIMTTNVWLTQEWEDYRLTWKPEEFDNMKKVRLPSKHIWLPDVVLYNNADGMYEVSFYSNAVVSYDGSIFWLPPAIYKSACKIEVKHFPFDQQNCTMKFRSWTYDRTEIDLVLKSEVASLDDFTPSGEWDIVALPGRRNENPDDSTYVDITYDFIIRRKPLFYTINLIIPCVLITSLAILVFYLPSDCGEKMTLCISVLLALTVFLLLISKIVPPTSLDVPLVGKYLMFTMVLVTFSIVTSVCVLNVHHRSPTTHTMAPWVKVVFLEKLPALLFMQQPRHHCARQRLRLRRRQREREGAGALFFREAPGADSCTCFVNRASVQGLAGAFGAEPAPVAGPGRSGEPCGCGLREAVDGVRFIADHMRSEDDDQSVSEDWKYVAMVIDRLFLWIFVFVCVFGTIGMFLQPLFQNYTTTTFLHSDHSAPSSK
# Method Summary: Calcium accumulation assay, HEK ts201 cells transiently expressing wild-type hα4β2 nAChRs
# Format: cell-based
Property Measured: IC50
Note: state the figure and append the unit.

Give the reported IC50 for this compound. COc1cc2c3cc1Oc1cc(ccc1O)C[C@@H]1c4c(cc(OC)c(O)c4Oc4ccc(cc4)C[C@@H]3N(C)CC2)CC[N+]1(C)C 6.3 µM
